Where these numbers come from: PubChem BioAssay (NCI)

test system: T-47D breast; test: NCI tumour cell line growth inhibition, 48 h
Listed next: entries and their corresponding TGI.

[
  {
    "Compound": "O=C(O)CNC(=O)CO/N=C1/C(c2c(O)[nH]c3ccccc23)=Nc2ccccc21",
    "System Tested": "T-47D breast",
    "Measured Result": "> 100 µM"
  },
  {
    "Compound": "Cc1nc(C)c(C(=O)NNC(=O)Cc2ccccc2)cc1C(=O)NNC(=O)Cc1ccccc1",
    "System Tested": "T-47D breast",
    "Measured Result": "> 100 µM"
  },
  {
    "Compound": "COc1cc(OC)cc(Oc2nc3ccccc3nc2C(=O)O)c1",
    "System Tested": "T-47D breast",
    "Measured Result": "> 100 µM"
  }
]

Query (compound): COCO[C@@H]1C[C@H]2C(O)Nc3ccccc3C(=O)N2C1 (stereo partly drawn) ; field requested: TGI > 100 µM
